All values here come from patent US11130756B2.

measurement-target: human TLR7 (Homo sapiens)
Sequence (Q9NYK1 27-1049): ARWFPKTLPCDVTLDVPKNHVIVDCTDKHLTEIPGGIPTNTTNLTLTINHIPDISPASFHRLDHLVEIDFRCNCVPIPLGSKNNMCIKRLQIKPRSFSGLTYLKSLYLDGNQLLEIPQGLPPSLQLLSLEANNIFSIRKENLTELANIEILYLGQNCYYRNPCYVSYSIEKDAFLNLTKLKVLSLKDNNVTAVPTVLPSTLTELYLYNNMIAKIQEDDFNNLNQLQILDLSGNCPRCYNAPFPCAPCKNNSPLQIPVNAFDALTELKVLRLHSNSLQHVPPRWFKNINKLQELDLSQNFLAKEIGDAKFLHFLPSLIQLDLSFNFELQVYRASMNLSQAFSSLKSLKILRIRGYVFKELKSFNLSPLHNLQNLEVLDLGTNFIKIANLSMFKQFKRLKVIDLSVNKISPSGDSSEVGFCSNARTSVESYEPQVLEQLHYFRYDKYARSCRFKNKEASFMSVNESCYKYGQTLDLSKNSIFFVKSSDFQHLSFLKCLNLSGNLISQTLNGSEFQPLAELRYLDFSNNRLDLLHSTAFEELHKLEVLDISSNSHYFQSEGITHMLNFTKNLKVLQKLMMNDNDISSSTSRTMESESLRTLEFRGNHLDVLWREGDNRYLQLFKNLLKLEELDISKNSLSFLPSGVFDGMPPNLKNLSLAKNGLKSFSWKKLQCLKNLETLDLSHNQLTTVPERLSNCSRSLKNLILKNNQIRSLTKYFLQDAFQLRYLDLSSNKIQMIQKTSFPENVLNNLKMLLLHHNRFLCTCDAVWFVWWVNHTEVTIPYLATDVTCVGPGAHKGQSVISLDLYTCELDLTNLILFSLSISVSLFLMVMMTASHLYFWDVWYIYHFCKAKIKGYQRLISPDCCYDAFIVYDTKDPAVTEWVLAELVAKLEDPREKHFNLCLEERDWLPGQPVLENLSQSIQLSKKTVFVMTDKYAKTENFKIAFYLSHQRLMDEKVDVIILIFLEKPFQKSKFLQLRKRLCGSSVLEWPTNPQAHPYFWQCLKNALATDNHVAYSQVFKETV
assay-notes: TLR7 inhibition reporter assay (HEK-Blue, SEAP)
measurement-conditions: HEK-Blue cells overexpressing human TLR7, gardiquimod 7.5 μM, 22 hour incubation
readout-type: IC50 (nM)

>  <compound>
Cc1c(-c2[nH]c3ccc(C4CC(C)N(CCS(C)(=O)=O)C(C)C4)cc3c2C(C)C)cn2cnnc2c1C (single isomer, unassigned) [Example 111]

>  <measurement-target>
human TLR7 (Homo sapiens)

>  <IC50, nM>
23.9

$$$$
>  <compound>
Cc1c(-c2[nH]c3ccc(C4CC(C)N(CCS(C)(=O)=O)C(C)C4)cc3c2C(C)C)cn2cnnc2c1C (single isomer, unassigned) [Example 110]

>  <measurement-target>
human TLR7 (Homo sapiens)

>  <IC50, nM>
6.3

$$$$
>  <compound>
Cc1c(-c2[nH]c3ccc(C4CCN(C)CC4)cc3c2C(C)C)cn2cnnc2c1C

>  <measurement-target>
human TLR7 (Homo sapiens)

>  <IC50, nM>
1

$$$$
>  <compound>
Cc1c(-c2[nH]c3ccc(C4CCN(C5CC(C)(C)OC(C)(C)C5)CC4)cc3c2C(C)C)cn2cnnc2c1C

>  <measurement-target>
human TLR7 (Homo sapiens)

>  <IC50, nM>
13.7

$$$$
>  <compound>
Cc1c(-c2[nH]c3ccc(C4CCN(CC5(C)COC5)CC4)cc3c2C(C)C)cn2cnnc2c1Cl

>  <measurement-target>
human TLR7 (Homo sapiens)

>  <IC50, nM>
2.3

$$$$

a. Cc1cc(-c2[nH]c3ccc(C4CCN(C5COC5)CC4)cc3c2C(C)C)cn2cnnc12
b. Cc1cc(-c2[nH]c3ccc(C4CCN(Cc5ccn(C)n5)CC4)cc3c2C(C)C)cn2c(C)nnc12
// query // compare measured IC50 between a and b ; output the lower one Give the label of your selection.
// result a
